B1: tRNA (parent)
chain: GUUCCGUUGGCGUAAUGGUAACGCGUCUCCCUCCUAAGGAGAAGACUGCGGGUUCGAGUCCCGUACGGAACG

- Variants of: B1
- assay-procedure: yeast fitness, log relative to wild type (ln ratio); higher = fitter; tRNA-Arg(CCU), competitive growth, 37 C, 1 M NaCl
Please use Fulfilled whenever yeast fitness (ln) is not below -0.2, and Not fulfilled whenever it is.

[[record]]
mutation_descriptor = "U2C C46U C66A A70U C71U"
class_name = "Fulfilled"

[[record]]
mutation_descriptor = "G6U C46U A70G"
class_name = "Not fulfilled"


Could you verify whether the entry G1A A43C C66U A70U shows yeast fitness (ln) of no less than -0.2? Not fulfilled

Reference for the values: the RNAGym collection of RNA variant scans (doi:10.1038/s41586-018-0170-7)
